Listed below are compounds with IC50 for Mast/stem cell growth factor receptor Kit (Homo sapiens, UniProt P10721), each taken from published literature.

Sample records with IC50:
Write down the reported IC50 of N#Cc1cnc2[nH]cc(C(=O)c3c(F)ccc(NS(=O)(=O)C4CCCC4)c3F)c2c1 , test system: Mast/stem cell growth factor receptor Kit (Homo sapiens, UniProt P10721).
≤ 10 µM

For the record CC(=O)c1cccc(Nc2cnc3[nH]ccc3c2)c1 , what value of IC50 is listed for Mast/stem cell growth factor receptor Kit (Homo sapiens, UniProt P10721)?
≤ 10 µM

Please tell me: IC50 of O=C(O)/C=C/c1cccc(-c2cnc3[nH]cc(C(=O)c4ccccc4F)c3c2)c1 , system Mast/stem cell growth factor receptor Kit (Homo sapiens, UniProt P10721)?
≤ 10 µM

Form field - read-out: IC50; system: Mast/stem cell growth factor receptor Kit (Homo sapiens, UniProt P10721); submitted item: CC1CN(c2cncnc2)Cc2cc(C(=O)Nc3cc(CCN4CCN(C)CC4)cc(C(F)(F)F)c3)ccc21 (stereo not drawn)
> 10 µM

IC50 of CN(C)S(=O)(=O)Nc1ccc(F)c(C(=O)c2c[nH]c3ncc(Br)cc23)c1F on Mast/stem cell growth factor receptor Kit (Homo sapiens, UniProt P10721)?
≤ 10 µM

For Mast/stem cell growth factor receptor Kit (Homo sapiens, UniProt P10721), provide IC50 of Cn1cc(-c2cnc3[nH]cc(C(=O)c4cc(NS(=O)(=O)c5cccc(C(F)(F)F)c5)ccc4F)c3c2)cn1 please.
≤ 10 µM

Notebook entry, Mast/stem cell growth factor receptor Kit (Homo sapiens, UniProt P10721) assay: IC50 of COc1cc(OC)cc(C(OC)c2c[nH]c3ncc(Br)cc23)c1 (stereo not drawn) = ?
≤ 10 µM

Short answer please: IC50, Mast/stem cell growth factor receptor Kit (Homo sapiens, UniProt P10721), entry Cc1cnc2[nH]cc(C(=O)c3ccc(Nc4ccc(C)nc4)nc3F)c2c1
< 1 µM

Next:
What IC50 appears in the records for this compound with Mast/stem cell growth factor receptor Kit (Homo sapiens, UniProt P10721)? COc1ncccc1CNc1ccc(Cc2c[nH]c3ncncc23)c(F)n1
≤ 10 µM

Requested read-out IC50, target or system Mast/stem cell growth factor receptor Kit (Homo sapiens, UniProt P10721), entry O=C(c1c(F)ccc(NS(=O)(=O)c2ccc(F)cc2)c1F)c1c[nH]c2ncccc12
≤ 10 µM

# get_value(readout= IC50, system= Mast/stem cell growth factor receptor Kit (Homo sapiens, UniProt P10721)) for CCOc1ccc(Nc2ccc(Cc3c[nH]c4ncnc(C5CC5)c34)c(F)n2)cn1
< 1 µM
